Each recorded value in this set is attributed to ChEMBL document CHEMBL1773004.

Study system: Metabotropic glutamate receptor 2 (Rattus norvegicus)
Procedure details: Positive allosteric modulation of rat mGluR2 expressed in HEK293 cells co-expressing Galpha15 G protein assessed as increase in glutamate-induced intracellular calcium release by FLIPR assay
EC50 values for the compounds below.
Endpoint label: EC50 (nM)

Cn1c(CN2CCC(c3ccc(C(F)(F)F)cc3)CC2)nc2ccncc21 | 196
Cn1c(CN2CCC(c3cccc(C#N)c3)CC2)nc2ccccc21 | 1620
Cn1c(CN2CCC(c3ccc(F)cc3)CC2)nc2ccccc21 | 159
Cn1c(CN2CCC(c3ccc(Cl)cc3F)CC2)nc2ccccc21 | 7.6
C[C@@H]1C[C@H](c2ccc(C(F)(F)F)cc2)CCN1Cc1nc2ncccc2n1C | 454
COc1cc(C(F)(F)F)ccc1[C@@H]1CCN(Cc2nc3ncccc3n2C)C[C@@H]1C | 22
Cn1c(CN2CCC(c3ccc(C(F)(F)F)cc3)CC2)nc2ncccc21 | 48
COc1ccccc1N1CCN(Cc2c(Br)c(=O)n(-c3ccccc3)n2C)CC1 | 891
Cn1c(CN2CCC(c3ccc(OC(F)(F)F)cc3F)CC2)nc2ncccc21 | 25
Cn1c(CN2CCC(c3ccc(C(F)(F)F)cc3)CC2)nc2ccccc21 | 78

----------
Study system: D(2) dopamine receptor (Rattus norvegicus, UniProt P61169)
Sequence (P61169 whole entry): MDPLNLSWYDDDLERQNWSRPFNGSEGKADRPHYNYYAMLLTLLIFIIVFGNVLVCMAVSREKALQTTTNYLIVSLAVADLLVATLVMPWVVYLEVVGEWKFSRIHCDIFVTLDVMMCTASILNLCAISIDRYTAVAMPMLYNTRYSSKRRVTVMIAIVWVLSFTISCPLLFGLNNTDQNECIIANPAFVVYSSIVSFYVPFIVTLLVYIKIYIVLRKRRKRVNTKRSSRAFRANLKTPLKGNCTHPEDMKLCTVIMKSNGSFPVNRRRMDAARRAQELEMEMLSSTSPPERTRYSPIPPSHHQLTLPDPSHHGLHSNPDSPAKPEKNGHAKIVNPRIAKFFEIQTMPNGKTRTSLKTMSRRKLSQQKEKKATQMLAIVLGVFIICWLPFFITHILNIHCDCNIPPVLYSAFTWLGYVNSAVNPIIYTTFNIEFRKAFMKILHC
Procedure details: Displacement of [3H]spiperone from dopamine D2 receptor in rat corpus striatum by beta plate scintillation counting
pKi: −log10 of the molar value.
pKi values for the molecules below.
Endpoint label: pKi

C[C@H]1CN(Cc2nc3ncccc3n2C)CC[C@H]1c1ccc(C(F)(F)F)cc1 (racemic) | < 5.55
C[C@H]1CN(Cc2nc3ncccc3n2C)CC[C@H]1c1ccc(OC(F)(F)F)cc1F | < 5.33
Cn1c(CN2CC[C@@H](c3ccc(C(F)(F)F)cc3)C(C)(C)C2)nc2ncccc21 | < 5.55
COc1cc(C(F)(F)F)ccc1[C@@H]1CCN(Cc2nc3ncccc3n2C)C[C@@H]1C | < 5.28

----------
Study system: Metabotropic glutamate receptor 2 (Rattus norvegicus, UniProt P31421)
Sequence (P31421 whole entry): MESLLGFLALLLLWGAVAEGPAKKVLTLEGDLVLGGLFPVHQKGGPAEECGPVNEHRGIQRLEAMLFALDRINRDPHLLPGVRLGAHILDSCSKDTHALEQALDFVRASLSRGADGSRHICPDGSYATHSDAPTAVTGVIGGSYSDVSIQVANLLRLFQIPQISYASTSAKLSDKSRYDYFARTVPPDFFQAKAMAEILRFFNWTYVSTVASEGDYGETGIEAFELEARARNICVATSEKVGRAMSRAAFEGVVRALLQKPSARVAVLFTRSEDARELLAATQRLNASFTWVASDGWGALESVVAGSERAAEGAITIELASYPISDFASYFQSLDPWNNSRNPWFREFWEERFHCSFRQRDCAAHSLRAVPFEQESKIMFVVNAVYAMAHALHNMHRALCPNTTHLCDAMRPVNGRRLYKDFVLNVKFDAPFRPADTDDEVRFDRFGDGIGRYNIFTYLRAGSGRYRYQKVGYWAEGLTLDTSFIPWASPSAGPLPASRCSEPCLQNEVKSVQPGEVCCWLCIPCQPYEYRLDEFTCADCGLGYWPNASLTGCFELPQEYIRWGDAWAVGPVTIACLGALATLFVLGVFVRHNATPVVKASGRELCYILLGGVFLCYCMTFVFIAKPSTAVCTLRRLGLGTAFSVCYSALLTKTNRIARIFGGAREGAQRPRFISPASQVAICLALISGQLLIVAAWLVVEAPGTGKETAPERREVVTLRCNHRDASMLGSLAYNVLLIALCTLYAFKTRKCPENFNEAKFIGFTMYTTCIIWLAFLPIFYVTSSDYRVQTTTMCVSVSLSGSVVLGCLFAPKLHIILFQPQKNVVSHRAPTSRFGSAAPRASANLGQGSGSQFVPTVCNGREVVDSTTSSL
Procedure details: Positive allosteric modulation of rat mGluR2 expressed in HEK293 cells co-expressing Galpha15 G protein assessed as increase in glutamate-induced intracellular calcium release by FLIPR assay
pEC50: −log10 of the molar value.
pEC50 values for the compounds below.
Endpoint label: pEC50

C[C@@H]1CN(Cc2nc3ncccc3n2C)CC[C@@H]1c1ccc(Cl)cc1F | < 5.74
CNC(=O)c1cccc(C2CCN(Cc3nc4ccccc4n3C)CC2)c1 | < 5.00
Cn1c(CN2CCC(c3ccc(C(F)(F)F)cc3)C(O)C2)nc2ncccc21 (trans isomer) | < 5.00
